# TARGET OR SYSTEM: Peptidyl-prolyl cis-trans isomerase A (Rattus norvegicus)
# ASSAY DETAILS: In vitro affinity towards cyclophilin A was determined under competitive ELISA systems using protein-conjugated ligand CsA
OUTCOME MEASURE: Relative IC50
Returns: the value as a bare number; no unit string appended.

Field: example entries. Status: answers known.
compound="C/C=C/C[C@@H](C)[C@@H](O)[C@H]1C(=O)N[C@@H](CC)C(=O)N(C)CC(=O)N(C)[C@@H](CC2CC2)C(=O)N[C@@H](C(C)C)C(=O)N(C)[C@@H](CC(C)C)C(=O)N[C@@H](C)C(=O)N[C@H](C)C(=O)N(C)[C@@H](CC(C)C)C(=O)N(C)[C@@H](CC(C)C)C(=O)N(C)C(C(C)C)C(=O)N1C (single isomer, unassigned)" assay_value=2.8
compound=C/C=C/C[C@@H](C)[C@@H](O)[C@H]1C(=O)N[C@@H](CC)C(=O)N(C)CC(=O)N(C)[C@@H](CC(C)(C)F)C(=O)N[C@@H](C(C)C)C(=O)N(C)[C@@H](CC(C)C)C(=O)N[C@@H](C)C(=O)N[C@H](C)C(=O)N(C)[C@@H](CC(C)C)C(=O)N(C)[C@@H](CC(C)C)C(=O)N(C)[C@@H](C(C)C)C(=O)N1C assay_value=2.1

Param item = C/C=C/C[C@@H](C)[C@@H](O)[C@H]1C(=O)N[C@@H](CC)C(=O)N(C)CC(=O)N(C)[C@@H](C(C)C)C(=O)N[C@@H](C(C)C)C(=O)N(C)[C@@H](CC(C)C)C(=O)N[C@@H](C)C(=O)N[C@H](C)C(=O)N(C)[C@@H](CC(C)C)C(=O)N(C)[C@@H](CC(C)C)C(=O)N(C)C(C(C)C)C(=O)N1C (single isomer, unassigned) ; retrieve measured Relative IC50.
0.5

---

# TARGET OR SYSTEM: Peptidyl-prolyl cis-trans isomerase A (Rattus norvegicus) (UniProt P10111)
# Sequence (P10111 whole entry): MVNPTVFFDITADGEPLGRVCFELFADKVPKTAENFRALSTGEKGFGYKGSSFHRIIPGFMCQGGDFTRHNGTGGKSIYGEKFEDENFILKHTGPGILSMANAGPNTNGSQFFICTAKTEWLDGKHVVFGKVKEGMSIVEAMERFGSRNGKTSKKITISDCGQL
# ASSAY DETAILS: In vitro affinity towards cyclophilin A was determined under competitive ELISA systems using protein-conjugated ligand CsA
OUTCOME MEASURE: Relative IC50
Returns: the value as a bare number; no unit string appended.

Field: example entries. Status: answers known.
molecule="C=C(C)C[C@H]1C(=O)N[C@@H](C(C)C)C(=O)N(C)[C@@H](CC(C)C)C(=O)N[C@@H](C)C(=O)N[C@H](C)C(=O)N(C)[C@@H](CC(C)C)C(=O)N(C)[C@@H](CC(C)C)C(=O)N(C)C(C(C)C)C(=O)N(C)[C@@H]([C@H](O)[C@H](C)C/C=C/C)C(=O)N[C@@H](CC)C(=O)N(C)CC(=O)N1C (single isomer, unassigned)" assay_value=1.8
molecule=C/C=C/C[C@@H](C)[C@@H](O)[C@H]1C(=O)N[C@@H](CC)C(=O)N(C)CC(=O)N(C)[C@@H](CC(C)(C)O)C(=O)N[C@@H](C(C)C)C(=O)N(C)[C@@H](CC(C)C)C(=O)N[C@@H](C)C(=O)N[C@H](C)C(=O)N(C)[C@@H](CC(C)C)C(=O)N(C)[C@@H](CC(C)C)C(=O)N(C)[C@@H](C(C)C)C(=O)N1C assay_value=0.9

Param item = C/C=C/C[C@@H](C)[C@@H](O)[C@H]1C(=O)N[C@@H](CC)C(=O)N(C)CC(=O)N(C)[C@@H](CCC(C)C)C(=O)N[C@@H](C(C)C)C(=O)N(C)[C@@H](CC(C)C)C(=O)N[C@@H](C)C(=O)N[C@H](C)C(=O)N(C)[C@@H](CC(C)C)C(=O)N(C)[C@@H](CC(C)C)C(=O)N(C)C(C(C)C)C(=O)N1C (single isomer, unassigned) ; retrieve measured Relative IC50.
1.9

---

# TARGET OR SYSTEM: Peptidyl-prolyl cis-trans isomerase A (Rattus norvegicus)
# ASSAY DETAILS: In vitro affinity towards cyclophilin A was determined under competitive ELISA systems using protein-conjugated ligand CsA
OUTCOME MEASURE: Relative IC50
Returns: the value as a bare number; no unit string appended.

Param item = C/C=C/C[C@@H](C)[C@@H](O)[C@H]1C(=O)N[C@@H](CC)C(=O)N(C)CC(=O)N(C)[C@@H](CC)C(=O)N[C@@H](C(C)C)C(=O)N(C)[C@@H](CC(C)C)C(=O)N[C@@H](C)C(=O)N[C@H](C)C(=O)N(C)[C@@H](CC(C)C)C(=O)N(C)[C@@H](CC(C)C)C(=O)N(C)C(C(C)C)C(=O)N1C (single isomer, unassigned) ; retrieve measured Relative IC50.
1.2
